I'd be grateful if you could share measured Tm for these entries.
METHOD_SUMMARY: melting temperature; UV melt of duplexes
STUDY_CONDITIONS: sodium 0.12 M; strand 6 µM
Numbers only, in °C.

SUBSTANCE	VALUE_MEASURED
AACGCGCGTAGAGTGGCCGCAA+TTGCGGCCACTCTACGCGCGTT ((((((((((((((((((((((+))))))))))))))))))))))	77.3
AATATGAATTCTAATA+TATTAGAATTCATATT ((((((((((((((((+))))))))))))))))	41.4
AATATATATAGAGTGGCCGCAA+TTGCGGCCACTCTATATATATT ((((((((((((((((((((((+))))))))))))))))))))))	65.2
ATATATATGAATTCATATATAT+ATATATATGAATTCATATATAT ((((((((((((((((((((((+))))))))))))))))))))))	48.9

We now examine a further substance.
Field request: Tm | item: AACGCGTGAATTCTGGCCAA+TTGGCCAGAATTCACGCGTT ((((((((((((((((((((+))))))))))))))))))))
66.6

====

I'd be grateful if you could share measured Tm for these entries.
METHOD_SUMMARY: melting temperature; UV melt of duplexes
STUDY_CONDITIONS: sodium 0.62 M; strand 2 µM
Numbers only, in °C.

Worked set:
SUBSTANCE	VALUE_MEASURED
ACGCCCACAGGATTAGGCTGGCCCACATTG+CAATGTGGGCCAGCCTAATCCTGTGGGCGT ((((((((((((((((((((((((((((((+))))))))))))))))))))))))))))))	82.7
GAGATTGTTTCCCTTTCAAA+TTTGAAAGGGAAACAATCTC ((((((((((((((((((((+))))))))))))))))))))	62.6
GCCCCTCCACTGGCCGACGGCAGCAGGCTC+GAGCCTGCTGCCGTCGGCCAGTGGAGGGGC ((((((((((((((((((((((((((((((+))))))))))))))))))))))))))))))	87.1
CTGGTCTGGATCTGAGAACTTCAGG+CCTGAAGTTCTCAGATCCAGACCAG (((((((((((((((((((((((((+)))))))))))))))))))))))))	74.2
TAACCATACTGAATACCTTTTGACG+CGTCAAAAGGTATTCAGTATGGTTA (((((((((((((((((((((((((+)))))))))))))))))))))))))	68.9

We now examine a further substance.
Field request: Tm | item: GTCATACGACTGAGTGCAACATTGTTCAAA+TTTGAACAATGTTGCACTCAGTCGTATGAC ((((((((((((((((((((((((((((((+))))))))))))))))))))))))))))))
75.9

====

I'd be grateful if you could share measured Tm for these entries.
METHOD_SUMMARY: melting temperature; melt of duplexes
STUDY_CONDITIONS: sodium 0.0675 M; strand 1 µM
One number for each entry, in °C.

Worked set:
SUBSTANCE	OBSERVED_PROPERTY	VALUE_MEASURED
CGACGTGCCGTATGTGCTG+CAGCACATCCTGCACGTCG ((((((((.(.((((((((+)))))))).).))))))))	Tm	49.7
CGACGTGCATAATGTGCTG+CAGCACATCTGGCACGTCG ((((((((...((((((((+))))))))...))))))))	Tm	49.3
CGACGTGCCGGATGTGCTG+CAGCACATCTGGCACGTCG (((((((((.(((((((((+))))))))).)))))))))	Tm	62.7

Look at each substance and report its Tm.
1. CGACGTGCGATATGTGCTG+CAGCACATGAAGCACGTCG ((((((((...((((((((+))))))))...))))))))
2. CGACGTGCCCGATGTGCTG+CAGCACATGGCGCACGTCG ((((((((.(.((((((((+)))))))).).))))))))
3. CGACGTGCCCAATGTGCTG+CAGCACATGCCGCACGTCG ((((((((...((((((((+))))))))...))))))))

1: 56.1; 2: 53.3; 3: 48.9

Field request: Tm | item: CGACGTGCTTTATGTGCTG+CAGCACATAACGCACGTCG ((((((((.((((((((((+)))))))))).))))))))
53.6
